# Subject of test: DRB1*07:01
# Condition context: modification not given
Readout kind: pIC50
The scale used: pIC50 is minus the common logarithm of the concentration in molar units.

Which pIC50 is reported for this binder? PAYTNSFTRGVYYPD [… (position 26)]
6.82
